# assayTarget: mNET (Mus musculus, UniProt O55192)
# Sequence (O55192 whole entry): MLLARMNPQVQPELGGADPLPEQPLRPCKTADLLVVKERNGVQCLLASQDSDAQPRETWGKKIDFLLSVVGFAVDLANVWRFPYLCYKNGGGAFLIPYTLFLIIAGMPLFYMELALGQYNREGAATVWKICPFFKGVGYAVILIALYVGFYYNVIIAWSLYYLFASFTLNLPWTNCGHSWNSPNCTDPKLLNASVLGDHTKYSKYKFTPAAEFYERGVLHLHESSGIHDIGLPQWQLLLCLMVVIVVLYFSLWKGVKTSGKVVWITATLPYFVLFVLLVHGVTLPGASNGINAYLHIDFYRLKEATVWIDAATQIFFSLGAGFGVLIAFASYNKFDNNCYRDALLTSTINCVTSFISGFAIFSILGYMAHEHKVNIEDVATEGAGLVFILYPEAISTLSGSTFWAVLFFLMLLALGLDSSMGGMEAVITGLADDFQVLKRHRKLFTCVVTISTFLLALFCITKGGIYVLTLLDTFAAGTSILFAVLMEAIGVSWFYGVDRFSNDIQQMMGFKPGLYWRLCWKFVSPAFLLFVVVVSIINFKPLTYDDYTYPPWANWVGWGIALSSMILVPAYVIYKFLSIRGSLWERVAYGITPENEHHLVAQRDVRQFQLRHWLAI
# Format: cell-based
readoutType: IC50 (nM)
One number for each entry, in nM.

Prompt: Give the reported IC50 for this compound. COC(=O)[C@H]1[C@@H](OC(=O)c2ccccc2)C[C@@H]2CC[C@H]1N2C
Response: 398

* * *

# assayTarget: mNET Y151M (Mus musculus, UniProt O55192, Y151M)
# runDescription: Uptake inhibition, mNET Y151M mutant
# Assay type: cell-based
# testSettings: read-out: RTI-113 IC50 [nM] uptake inhibition, mean ± SEM
readoutType: IC50 (nM)
Numbers only, in nM.

Prompt: Give the reported IC50 for this molecule. CN1[C@H]2CC[C@@H]1[C@@H](C(=O)Oc1ccccc1)[C@@H](c1ccc(Cl)cc1)C2
Response: 679

* * *

# assayTarget: mNET Y151G (Mus musculus, UniProt O55192, Y151G)
# runDescription: Uptake inhibition, mNET Y151G mutant
# Assay type: cell-based
# testSettings: read-out: RTI-113 IC50 [nM] uptake inhibition, mean ± SEM
readoutType: IC50 (nM)
Numbers only, in nM.

Prompt: Give the reported IC50 for this molecule. CN1[C@H]2CC[C@@H]1[C@@H](C(=O)Oc1ccccc1)[C@@H](c1ccc(Cl)cc1)C2 [RTI-113]
Response: 165

* * *

# assayTarget: mNET-TM8m (A415T/L418I/S421A/A427S/A433V/D435E) (Mus musculus, UniProt O55192, A414T/A426S/A432V/D434E/L417I/S420A)
# Sequence (O55192 whole entry A414T/L417I/S420A/A426S/A432V/D434E): as the sequence (O55192 whole entry) above, with A414T, L417I, S420A, A426S, A432V, D434E counted along it
# runDescription: Uptake inhibition, mNET-TM8m mutant
# Format: cell-based
# testSettings: read-out: RTI-113 IC50 [nM] uptake inhibition, mean ± SEM
readoutType: IC50 (nM)
One number for each entry, in nM.

Prompt: Give the reported IC50 for this molecule. CN1[C@H]2CC[C@@H]1[C@@H](C(=O)Oc1ccccc1)[C@@H](c1ccc(Cl)cc1)C2
Response: 269

* * *

# assayTarget: mNET Y151D (Mus musculus, UniProt O55192, Y151D)
# Sequence (O55192 whole entry Y151D): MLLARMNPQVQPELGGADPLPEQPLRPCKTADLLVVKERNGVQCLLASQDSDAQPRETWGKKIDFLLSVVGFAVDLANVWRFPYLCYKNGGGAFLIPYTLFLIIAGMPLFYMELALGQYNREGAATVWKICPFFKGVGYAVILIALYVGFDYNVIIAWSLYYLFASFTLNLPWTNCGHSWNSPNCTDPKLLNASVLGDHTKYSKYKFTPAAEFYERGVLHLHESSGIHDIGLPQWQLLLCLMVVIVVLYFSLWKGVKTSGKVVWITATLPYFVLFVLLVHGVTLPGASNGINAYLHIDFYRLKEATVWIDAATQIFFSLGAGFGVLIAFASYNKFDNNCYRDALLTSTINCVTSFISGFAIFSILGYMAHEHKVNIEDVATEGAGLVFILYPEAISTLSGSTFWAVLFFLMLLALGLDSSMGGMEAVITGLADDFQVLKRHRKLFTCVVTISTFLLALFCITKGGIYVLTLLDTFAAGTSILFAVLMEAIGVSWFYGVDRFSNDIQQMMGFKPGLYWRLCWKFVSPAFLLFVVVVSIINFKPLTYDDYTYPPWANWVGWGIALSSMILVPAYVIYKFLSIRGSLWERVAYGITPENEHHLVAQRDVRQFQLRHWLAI
# runDescription: Uptake inhibition, mNET Y151D mutant
# Type: cell-based
# testSettings: read-out: RTI-113 IC50 [nM] uptake inhibition, mean ± SEM
readoutType: IC50 (nM)
One number for each entry, in nM.

Prompt: Would you please give the reported IC50 of CN1[C@H]2CC[C@@H]1[C@@H](C(=O)Oc1ccccc1)[C@@H](c1ccc(Cl)cc1)C2 with mNET Y151D (Mus musculus, UniProt O55192, Y151D)?
Response: 306

* * *

# assayTarget: mNET Y151E (Mus musculus, UniProt O55192, Y151E)
# runDescription: Uptake inhibition, mNET Y151E mutant
# Type: cell-based
# testSettings: read-out: RTI-113 IC50 [nM] uptake inhibition, mean ± SEM
readoutType: IC50 (nM)
Give bare numbers, in nM.

Prompt: Would you please give the reported IC50 of CN1[C@H]2CC[C@@H]1[C@@H](C(=O)Oc1ccccc1)[C@@H](c1ccc(Cl)cc1)C2 [RTI-113] with mNET Y151E (Mus musculus, UniProt O55192, Y151E)?
Response: 770

* * *

# assayTarget: mNET Y151F (Mus musculus, UniProt O55192, Y151F)
# Sequence (O55192 whole entry Y151F): as the sequence (O55192 whole entry Y151D) above, with D151F counted along it
# runDescription: Uptake inhibition, mNET Y151F mutant
# testSettings: read-out: IC50 uptake inhibition; mNET Y151F; mean ± SEM
readoutType: IC50 (nM)
Answers are plain numbers, in nM.

CN1[C@H]2CC[C@@H]1[C@@H](C(=O)Oc1ccccc1)[C@@H](c1ccc(Cl)cc1)C2 : 12.1

Consider the record given below.
Prompt: Give the reported IC50 for this compound. COC(=O)[C@H]1[C@@H](c2ccc(Cl)cc2)C[C@H]2CC[C@H]1N2C
Response: 1.44

* * *

# assayTarget: mNET Y151T (Mus musculus, UniProt O55192, Y151T)
# Sequence (O55192 whole entry Y151T): as the sequence (O55192 whole entry Y151D) above, with D151T counted along it
# runDescription: Uptake inhibition, mNET Y151T mutant
# Assay type: cell-based
# testSettings: read-out: RTI-113 IC50 [nM] uptake inhibition, mean ± SEM
readoutType: IC50 (nM)
Numbers only, in nM.

Prompt: Give the reported IC50 for this compound. CN1[C@H]2CC[C@@H]1[C@@H](C(=O)Oc1ccccc1)[C@@H](c1ccc(Cl)cc1)C2
Response: 115

* * *

# assayTarget: mDAT F155Y (Mus musculus, UniProt Q61327, F155Y)
# Sequence (Q61327 whole entry F155Y): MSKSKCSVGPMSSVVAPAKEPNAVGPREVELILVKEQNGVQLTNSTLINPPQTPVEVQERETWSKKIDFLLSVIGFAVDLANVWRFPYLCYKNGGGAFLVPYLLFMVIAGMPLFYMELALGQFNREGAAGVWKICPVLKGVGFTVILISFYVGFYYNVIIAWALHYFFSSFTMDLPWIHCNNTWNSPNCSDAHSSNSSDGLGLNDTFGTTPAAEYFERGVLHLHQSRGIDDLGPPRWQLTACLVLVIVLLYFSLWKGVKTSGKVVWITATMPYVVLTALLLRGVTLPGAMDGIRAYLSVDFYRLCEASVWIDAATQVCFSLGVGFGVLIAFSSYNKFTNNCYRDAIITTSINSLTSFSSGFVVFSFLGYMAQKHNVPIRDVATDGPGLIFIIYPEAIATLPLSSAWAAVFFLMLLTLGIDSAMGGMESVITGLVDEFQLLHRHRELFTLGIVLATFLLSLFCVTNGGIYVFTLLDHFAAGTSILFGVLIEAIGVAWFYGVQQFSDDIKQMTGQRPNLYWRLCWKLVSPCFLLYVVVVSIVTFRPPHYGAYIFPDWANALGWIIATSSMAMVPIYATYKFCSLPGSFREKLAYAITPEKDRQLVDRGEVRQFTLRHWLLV
# runDescription: Uptake inhibition, mDAT F155Y mutant
# testSettings: read-out: IC50 uptake inhibition; mDAT F155Y; mean ± SEM
I'd appreciate it if you could supply pIC50 values for the items below.
One number for each entry, as −log10 of the molar value.

CN1[C@H]2CC[C@@H]1[C@@H](C(=O)Oc1ccccc1)[C@@H](c1ccc(Cl)cc1)C2 [RTI-113] : 7.87

Consider the record given below.
Prompt: Give the reported pIC50 for this compound. COC(=O)[C@H]1[C@@H](c2ccc(Cl)cc2)C[C@H]2CC[C@H]1N2C [RTI-31]
Response: 8.78

* * *

# assayTarget: mNET-TM3m (Y151F/S159A/Y161H) (Mus musculus, UniProt O55192, S159A/Y151F/Y161H)
# Sequence (O55192 whole entry Y151F/S159A/Y161H): as the sequence (O55192 whole entry Y151D) above, with D151F, S159A, Y161H counted along it
# runDescription: Uptake inhibition, mNET-TM3m mutant
# Format: cell-based
# testSettings: read-out: RTI-113 IC50 [nM] uptake inhibition, mean ± SEM
readoutType: IC50 (nM)
One number for each entry, in nM.

Prompt: Give the reported IC50 for this molecule. CN1[C@H]2CC[C@@H]1[C@@H](C(=O)Oc1ccccc1)[C@@H](c1ccc(Cl)cc1)C2
Response: 1.89

* * *

# assayTarget: mNET Y151V (Mus musculus, UniProt O55192, Y151V)
# Sequence (O55192 whole entry Y151V): as the sequence (O55192 whole entry Y151D) above, with D151V counted along it
# runDescription: Uptake inhibition, mNET Y151V mutant
# Format: cell-based
# testSettings: read-out: RTI-113 IC50 [nM] uptake inhibition, mean ± SEM
readoutType: IC50 (nM)
Answers are plain numbers, in nM.

Prompt: Would you please give the reported IC50 of CN1[C@H]2CC[C@@H]1[C@@H](C(=O)Oc1ccccc1)[C@@H](c1ccc(Cl)cc1)C2 [RTI-113] with mNET Y151V (Mus musculus, UniProt O55192, Y151V)?
Response: 181

* * *

# assayTarget: mNET Y151Q (Mus musculus, UniProt O55192, Y151Q)
# Sequence (O55192 whole entry Y151Q): as the sequence (O55192 whole entry Y151D) above, with D151Q counted along it
# runDescription: Uptake inhibition, mNET Y151Q mutant
# Format: cell-based
# testSettings: read-out: RTI-113 IC50 [nM] uptake inhibition, mean ± SEM
readoutType: IC50 (nM)
Numbers only, in nM.

Prompt: Give the reported IC50 for this compound. CN1[C@H]2CC[C@@H]1[C@@H](C(=O)Oc1ccccc1)[C@@H](c1ccc(Cl)cc1)C2
Response: 831

* * *

# assayTarget: mNET Y151S (Mus musculus, UniProt O55192, Y151S)
# Sequence (O55192 whole entry Y151S): as the sequence (O55192 whole entry Y151D) above, with D151S counted along it
# runDescription: Uptake inhibition, mNET Y151S mutant
# Format: cell-based
# testSettings: read-out: RTI-113 IC50 [nM] uptake inhibition, mean ± SEM
readoutType: IC50 (nM)
Give bare numbers, in nM.

Prompt: Give the reported IC50 for this compound. CN1[C@H]2CC[C@@H]1[C@@H](C(=O)Oc1ccccc1)[C@@H](c1ccc(Cl)cc1)C2
Response: 99.3

* * *

# assayTarget: mDAT (Mus musculus, UniProt Q61327)
# Sequence (Q61327 whole entry): as the sequence (Q61327 whole entry F155Y) above, with Y155F counted along it
# runDescription: Inhibition of [3H]dopamine uptake, wild type mDAT in transfected HeLa cells
readoutType: pIC50
Numbers only, as −log10 of the molar value.

Prompt: Give the reported pIC50 for this compound. COC(=O)[C@H]1[C@@H](OC(=O)c2ccccc2)C[C@@H]2CC[C@H]1N2C [cocaine]
Response: 6.50

* * *

# assayTarget: mNET-TM6m (T306S/I315V/F316C/A321) (Mus musculus, UniProt O55192, A321V/F316C/I315V/T306S)
# runDescription: Uptake inhibition, mNET-TM6m mutant
# Format: cell-based
# testSettings: read-out: RTI-113 IC50 [nM] uptake inhibition, mean ± SEM
readoutType: IC50 (nM)
Numbers only, in nM.

Prompt: Would you please give the reported IC50 of CN1[C@H]2CC[C@@H]1[C@@H](C(=O)Oc1ccccc1)[C@@H](c1ccc(Cl)cc1)C2 [RTI-113] with mNET-TM6m (T306S/I315V/F316C/A321) (Mus musculus, UniProt O55192, A321V/F316C/I315V/T306S)?
Response: 341

* * *

# assayTarget: mNET Y151A (Mus musculus, UniProt O55192, Y151A)
# runDescription: Uptake inhibition, mNET Y151A mutant
# Type: cell-based
# testSettings: read-out: RTI-113 IC50 [nM] uptake inhibition, mean ± SEM
readoutType: IC50 (nM)
Answers are plain numbers, in nM.

Prompt: Give the reported IC50 for this compound. CN1[C@H]2CC[C@@H]1[C@@H](C(=O)Oc1ccccc1)[C@@H](c1ccc(Cl)cc1)C2
Response: 130
